Give MCC for every item shown.
assay: in vitro; settings: human, a549 cells

Here is how some compounds turned out for MCC.
>>> print(df.to_string())
                                   compound  observed_property       result
0  CC(Cc1ccccc1)(C(=NC#N)NCCc1ccccc1)c1ccccn1 (centres unmarked) [Example 1]                MCC   > 50 µg/mL
1  CSC(=NC#N)NCCSCc1cccnc1Nc1ccccc1 [Example 3]                MCC  > 100 µg/mL
2  NC12CC3CC(CC(C3)C1)C2 [Amantadine, reference compound]                MCC  > 100 µg/mL
3  CC(Cc1ccccc1)(C(=NC#N)NCc1ccco1)c1ccccn1 (centres unmarked) [Example 2]                MCC   > 50 µg/mL

Could you now consider this next compound?
Q) Record request: MCC value, item NC(=O)c1ncn([C@@H]2O[C@H](CO)[C@@H](O)[C@H]2O)n1 [Ribavirin, reference compound]
A) > 100 µg/mL

---

test: in vitro; settings: african green monkey, vero cells
observed property: MCC

>>> print(df.to_string())
                                   molecule  observed_property       result
0  CC(Cc1ccccc1)(C(=NC#N)NCc1ccco1)c1ccccn1 (centres unmarked)                MCC   > 50 µg/mL
1          CSC(=NC#N)NCCSCc1cccnc1Nc1ccccc1                MCC  > 100 µg/mL
2  NC(=O)c1ncn([C@@H]2O[C@H](CO)[C@@H](O)[C@H]2O)n1 [Ribavirin, reference compound]                MCC  > 100 µg/mL
3  NC12CC3CC(CC(C3)C1)C2 [Amantadine, reference compound]                MCC  > 100 µg/mL

Could you now consider this next molecule?
Q) Record request: MCC value, item CC(Cc1ccccc1)(C(=NC#N)NCCc1ccccc1)c1ccccn1 (centres unmarked)
A) > 50 µg/mL

---

Give MCC for every item shown.
assay: in vitro; conditions: human, mrc-5 cells

Here is how some molecules turned out for MCC.
In [3]: df
Out[3]:
                                   molecule       result
0  NC(=O)c1ncn([C@@H]2O[C@H](CO)[C@@H](O)[C@H]2O)n1 [Ribavirin, reference compound]  > 100 µg/mL
1  CC(Cc1ccccc1)(C(=NC#N)NCc1ccco1)c1ccccn1 (centres unmarked) [Example 2]   > 50 µg/mL
2  CSC(=NC#N)NCCSCc1cccnc1Nc1ccccc1 [Example 3]  > 100 µg/mL
3  NC12CC3CC(CC(C3)C1)C2 [Amantadine, reference compound]  > 100 µg/mL

Could you now consider this next molecule?
Q) Record request: MCC value, item CC(Cc1ccccc1)(C(=NC#N)NCCc1ccccc1)c1ccccn1 (centres unmarked) [Example 1]
A) > 50 µg/mL

---

test: in vitro; settings: human, hep-2 cells
Give MCC for every item shown.

Look up MCC for the entries below, preserving their order.
1. CC(Cc1ccccc1)(C(=NC#N)NCc1ccco1)c1ccccn1 (centres unmarked)
2. NC(=O)c1ncn([C@@H]2O[C@H](CO)[C@@H](O)[C@H]2O)n1 [Ribavirin, reference compound]
3. CSC(=NC#N)NCCSCc1cccnc1Nc1ccccc1
4. NC12CC3CC(CC(C3)C1)C2 [Amantadine, reference compound]
5. CC(Cc1ccccc1)(C(=NC#N)NCCc1ccccc1)c1ccccn1 (centres unmarked)

A)
1: > 50 µg/mL; 2: > 100 µg/mL; 3: > 100 µg/mL; 4: > 100 µg/mL; 5: > 50 µg/mL

Entry source: patent US5475012A
